Cited source for all entries: patent US20240141072A1

Target: T1, biotinylated human DLL3 protein expressed as a human IgG1 fusion protein (human, UniProt Q9NYJ7 27-492, limits assumed, biotinylated)
T1 sequence: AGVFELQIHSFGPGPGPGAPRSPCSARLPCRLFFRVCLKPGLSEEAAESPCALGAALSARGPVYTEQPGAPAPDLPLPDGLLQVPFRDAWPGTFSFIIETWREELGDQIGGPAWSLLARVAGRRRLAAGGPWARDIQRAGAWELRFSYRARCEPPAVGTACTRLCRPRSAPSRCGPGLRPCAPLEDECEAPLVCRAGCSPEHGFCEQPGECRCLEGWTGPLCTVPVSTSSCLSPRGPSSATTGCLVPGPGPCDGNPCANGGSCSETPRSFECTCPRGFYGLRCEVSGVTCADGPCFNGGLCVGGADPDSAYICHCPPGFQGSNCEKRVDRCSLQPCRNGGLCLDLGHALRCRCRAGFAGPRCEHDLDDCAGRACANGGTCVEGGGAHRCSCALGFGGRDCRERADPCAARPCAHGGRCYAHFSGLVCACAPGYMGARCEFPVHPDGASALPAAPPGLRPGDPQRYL
Test: Octet BLI, single 50 nM
readout: Kd (nM)
Give bare numbers, in nM.

Required: Kd, one value per binder below.
1. 4D02 anti-DLL3 trispecific protein (other, not shown: linker 1808, anti-albumin sdAb, linker 1808, anti-CD3 fragment, His6 1819) EVQLVESGGGLVQPGGSLTLSCAASGSKVSFLSMAWYRQAPGKKRELVAGISARGSTDYIDSVKGRFTISRDNAKNSVYLQMNSLRAEDTAVYYCYAYQWTTRYTYWGQGTLVTVSS
2. 2F08 anti-DLL3 trispecific protein (other, not shown: linker 1808, anti-albumin sdAb, linker 1808, anti-CD3 fragment, His6 1819) EVQLVESGGGLVQPGGSLTLSCVASGSKSSINAMGWYRRAPGKQRELPAGISSNGTKVYADSAKVRFTISRDNAKNSVYLQMNSLRAEDTAVYYCYYFRTVLGTSMRYWGQGTLVTVSS

Reply:
1: 30; 2: 20

Quick one: give me Kd for each item below, same order please.
1. 3B011 anti-DLL3 trispecific protein (other, not shown: linker 1808, anti-albumin sdAb, linker 1808, anti-CD3 fragment, His6 1819) EVQLVESGGGLVQPGGSLTLSCAASGSSVSFLSMAWYRQAPGKKRELVAGISADGSADYIDSVKGRFTISRDNAKNSVYLQMNSLRAEDTAVYYCYAYRWVTRYTYWGQGTLVTVSS
2. 1E09 anti-DLL3 trispecific protein (other, not shown: linker 1808, anti-albumin sdAb, linker 1808, anti-CD3 fragment, His6 1819) EVQLVESGGGLVQPGGSLTLSCVASGSTSSINAMAWYRRAPGKQRELVAGISSDGSKVYTDSVKGRFTISRDNAKNSVYLQMNSLRAEDTAVYYCYYFRTRSGSSMRYWGQGTLVTVSS
3. 3H011 anti-DLL3 trispecific protein (other, not shown: linker 1808, anti-albumin sdAb, linker 1808, anti-CD3 fragment, His6 1819) EVQLVESGGGLVQPGGSLTLSCAASGSSVKFLSMAWYRQAPGKKRELVAGISADGSTVYIDSVKGRFTISRDNAKNSVYLQMNSLRAEDTAVYYCYAYRWPTRYTYWGQGTLVTVSS

Reply:
1. 9
2. 4.4
3. 2.7

Give one value of Kd per listed binder.
1. 3E03 anti-DLL3 trispecific protein (other, not shown: linker 1808, anti-albumin sdAb, linker 1808, anti-CD3 fragment, His6 1819) EVQLVESGGGLVQPGGSLTLSCAASGSSVRFLSMAWYRQAPGKKRELVAGISGDGSTDYIDSVKGRFTISRDNAKNSVYLQMNSLRAEDTAVYYCYAYRWMTRYTYWGQGTLVTVSS
2. 1C07 anti-DLL3 trispecific protein (other, not shown: linker 1808, anti-albumin sdAb, linker 1808, anti-CD3 fragment, His6 1819) EVQLVESGGGLVQPGGSLTLSCVASGSTSSINAMAWYRRAPGKQRELVAGISSDGSKVYADSVKGRFTISRDNAKNSVYLQMNSLRAEDTAVYYCYYFRTVSGSSMRYWGQGTLVTVSS

Reply:
20
7.1

Query: Entry under review: 1H02 anti-DLL3 trispecific protein (other, not shown: linker 1808, anti-albumin sdAb, linker 1808, anti-CD3 fragment, His6 1819) EVQLVESGGGLVQPGGSLTLSCVASGSKSSINAMGWYRRAPGKQRELAAGISSDGSKVYAQSVKGRFTISRDNAKNSVYLQMNSLRAEDTAVYYCYYFRTSSGSSMRYWGQGTLVTVSS . Reported Kd?
Reply: 10
